read-out: Cytochrome P450 (CYP1A2), CYP1A2 (gene 1544); assay: LTEA_HepaRG_CYP1A2: Life Technologies and Expression Analysis (LTEA) Assay for Cytochrome P450 (CYP1A2) using HepaRG (AID 2283479); conditions: mRNA level, 48 h; actives raise or lower the signal
Active and inactive are the calls of the source. The calls were made as follows: active = hit-call score of the fitted dose curve at least 0.9, where 1 is the maximum; inactive = score below 0.9.
Labels: t for active, f for inactive

Compound: CCOc1cccc(-n2cc(C(=O)N3CCN(c4cc(C(=O)O)c5ccccc5c4)CC3)nc2-c2ccc(C)cc2)c1
Category: t
--
Compound: COc1ccc(/C=C/S(=O)(=O)NC(=O)c2ccc(C)cc2Cl)cc1
Category: f
--
Compound: CCCCC(CC)COC(=O)c1ccc(C(=O)OCC(CC)CCCC)cc1 (configuration not stated)
Category: f
--
Compound: Cc1ccc(N)cc1O
Category: t
--
Compound: CC[C@H](C)C(=O)O[C@H]1C[C@@H](C)C=C2C=C[C@H](C)[C@H](CC[C@@H]3C[C@@H](O)CC(=O)O3)[C@H]21
Category: t
--
Compound: Cc1ccc(C)c(O)c1
Category: t
--
Compound: CC(C)=CCCC(C)CCO (configuration not stated)
Category: t
--
Compound: O=C(NS(=O)(=O)/C=C/c1ccccc1)c1ccc(F)cc1Cl
Category: f
--
Compound: O=C(O)CCN(C1(C(=O)NO)CCCC1)S(=O)(=O)c1ccc(Oc2ccc(F)cc2)cc1
Category: f
--
Compound: Nc1cccc(N)c1
Category: t
--
Compound: O=C1OC(=O)C2C3C=CC(C3)C12 (configuration not stated)
Category: f
--
Compound: CCOC(=O)COc1ccc2c(c1)CC(NCC(O)c1cccc(Cl)c1)CC2 (configuration not stated)
Category: f
--
Compound: CCc1cc(SCc2sc(-c3ccc(C(F)(F)F)cc3)nc2CN2CCN(c3ccc(OC)cc3)CC2)ccc1OCC(=O)O
Category: f
--
Compound: CCCCCCCCCCCCc1ccccc1
Category: f
--
Compound: CC1=CC(=O)CC(C)(C)C1
Category: f
--
Compound: CCOCCO
Category: f
--
Compound: CC(C)c1cccc(C(C)C)c1N1C(=O)c2ccc(O)cc2C1=O
Category: f
--
Compound: CCCCCCCCO
Category: f
--
Compound: COc1ccc(-n2nc(C(F)F)cc2-c2ccc(S(C)=O)cc2)cc1 (configuration not stated)
Category: t
--
Compound: CN(C)c1ccc(Cc2ccc(N(C)C)cc2)cc1
Category: t
--
Compound: Cc1[nH]cnc1C[C@H]1CCc2c(C)c3ccccc3n2C1=O
Category: t
--
Compound: Nc1nc2ncc(CNc3ccc(C(=O)N[C@@H](CCC(=O)O)C(=O)O)cc3)nc2c(=O)[nH]1
Category: f

---

Read-out: Hypoxia-inducible factor 1-alpha (Homo sapiens) (UniProt Q16665)
Sequence (Q16665 whole entry, looked up): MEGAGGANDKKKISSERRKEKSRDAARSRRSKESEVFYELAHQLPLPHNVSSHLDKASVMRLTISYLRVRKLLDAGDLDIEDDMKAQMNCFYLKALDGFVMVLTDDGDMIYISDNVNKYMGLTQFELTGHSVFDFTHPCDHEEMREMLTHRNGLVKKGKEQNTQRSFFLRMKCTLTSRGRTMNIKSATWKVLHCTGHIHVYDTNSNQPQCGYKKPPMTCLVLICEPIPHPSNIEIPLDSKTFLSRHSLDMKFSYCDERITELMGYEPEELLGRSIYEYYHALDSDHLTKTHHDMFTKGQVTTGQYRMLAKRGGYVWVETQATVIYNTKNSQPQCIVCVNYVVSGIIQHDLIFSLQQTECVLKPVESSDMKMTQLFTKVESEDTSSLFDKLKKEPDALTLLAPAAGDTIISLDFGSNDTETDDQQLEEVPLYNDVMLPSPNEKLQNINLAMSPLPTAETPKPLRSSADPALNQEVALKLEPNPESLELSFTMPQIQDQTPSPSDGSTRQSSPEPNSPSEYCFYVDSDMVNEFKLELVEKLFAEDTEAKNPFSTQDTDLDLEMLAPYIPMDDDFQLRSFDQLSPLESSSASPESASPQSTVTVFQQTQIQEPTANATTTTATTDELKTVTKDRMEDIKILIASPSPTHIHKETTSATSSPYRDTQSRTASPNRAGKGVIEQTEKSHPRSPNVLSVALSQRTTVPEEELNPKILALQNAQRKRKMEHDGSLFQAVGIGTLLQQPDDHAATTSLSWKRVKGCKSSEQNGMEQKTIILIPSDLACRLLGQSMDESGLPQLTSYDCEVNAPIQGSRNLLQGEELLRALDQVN
Test: LTEA_HepaRG_HIF1A: Life Technologies and Expression Analysis (LTEA) Assay for Hypoxia-inducible factor 1 (HIF1A) Trancription factor using HepaRG (AID 2283503);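 also: HIF1A transcript by TaqMan qRT-PCR normalized to ACTB GAPDH and POLR2A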
Details: mRNA level, 48 h; actives raise or lower the signal
Method: LTEA_HepaRG is a cell based, multiplexed-readout assay that uses HepaRG, a human liver cell line, with measurements taken at 48 hours after chemical dosing on a 96-well plate.LTEA_HepaRG_HIF1A is one of 102 assay component(s) measured in the LTEA HepaRG cell culture assay. It is a marker of Cell proliferation, survival, death.Data from the assay component LTEA_HepaRG_HIF1A was analyzed into 1 endpoint. […]
Active and inactive are the calls of the source. Rule for the calls: active = hit-call score of the fitted dose curve at least 0.9, where 1 is the maximum; inactive = score below 0.9.
Labels: active, inactive

Compound: COc1ccc2sc(C(=O)Nc3nnn[nH]3)c(OC(C)C)c2c1
Category: active
--
Compound: CNS(=O)(=O)c1cc(C(=O)N2CCC(CCN3C4CCC3CC(n3c(C)nc5ccccc53)C4)(c3cccc(F)c3)CC2)c(Cl)cc1F (stereo unspecified)
Category: inactive
--
Compound: CCOCCOCCOCCO
Category: inactive
--
Compound: C1=CCCC=CCCC=CCC1
Category: inactive
--
Compound: CC1=CC(=O)CC(C)(C)C1
Category: inactive
--
Compound: CCCN(C1CCN(C(=O)C2CCNCC2)CC1)[C@@H]1CCc2ccc(OC)cc2C1
Category: active
